Tested on: ATP;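 also: ATP exposure 15 min at 22 °C before imaging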
Experiment: switch fluorescence ratio, 500 uM ATP over buffer (Cy3 cluster intensity, sum of 5 cycles each) (fold (ratio)); higher = stronger signal-on switching upon ATP binding; sequences stand for … in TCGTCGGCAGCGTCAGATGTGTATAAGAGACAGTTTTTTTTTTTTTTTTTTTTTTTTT…TC
Details: aptamer strand: ATP DNA aptamer (quencher-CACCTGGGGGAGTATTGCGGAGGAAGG + anchor), 100 nM annealed; ATP concentration: 500 uM
Below is a list of entries, each paired with its recorded switch fluorescence ratio value.

In: Value lookup for switch fluorescence ratio; key = CTATCGGGGT
Out: 0.993

In: Value lookup for switch fluorescence ratio; key = ATCTTGGGTT
Out: 1.01

In: Value lookup for switch fluorescence ratio; key = GAATCTTAAA
Out: 0.997

In: Value lookup for switch fluorescence ratio; key = GGTGCTACAC
Out: 1.04

In: Value lookup for switch fluorescence ratio; key = GTGTTTGCTA
Out: 1.02

In: Value lookup for switch fluorescence ratio; key = CAGAGATTTA
Out: 0.995

In: Value lookup for switch fluorescence ratio; key = AAATTATTT
Out: 1.02

In: Value lookup for switch fluorescence ratio; key = GGGAGGAGTG
Out: 0.98

In: Value lookup for switch fluorescence ratio; key = CCAGTTAAGA
Out: 0.989

In: Value lookup for switch fluorescence ratio; key = AATTCGGGCG
Out: 1.02

In: Value lookup for switch fluorescence ratio; key = GGGAATAGAG
Out: 0.99

In: Value lookup for switch fluorescence ratio; key = ATGTAGGGG
Out: 1

* * *

Below is a list of entries, each paired with its recorded switch fluorescence ratio value.
Tested on: ATP;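 also: ATP exposure 15 min at 22 °C before imaging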
Test: switch fluorescence ratio, 500 uM ATP over buffer (Cy3 cluster intensity, sum of 5 cycles each) (fold (ratio)); higher = stronger signal-on switching upon ATP binding; sequences stand for … in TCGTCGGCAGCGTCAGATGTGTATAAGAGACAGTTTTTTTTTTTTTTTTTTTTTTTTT…TC
Conditions: aptamer strand: ATP DNA aptamer (quencher-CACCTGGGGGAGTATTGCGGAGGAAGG + anchor), 100 nM annealed; ATP concentration: 500 uM
# answer = number (no unit)

In: Value lookup for switch fluorescence ratio; key = TTTCGAAATG
Out: 1.01

In: Value lookup for switch fluorescence ratio; key = AGAAGTTTCG
Out: 1.01

In: Value lookup for switch fluorescence ratio; key = ATGTCGTGTC
Out: 1

In: Value lookup for switch fluorescence ratio; key = TCGGAGGGAA
Out: 1.03

In: Value lookup for switch fluorescence ratio; key = TTGGAAAAGT
Out: 0.988

* * *

Below is a list of entries, each paired with its recorded switch fluorescence ratio value.
Test system: ATP;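 also: ATP exposure 15 min at 22 °C before imaging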
Test: switch fluorescence ratio, 500 uM ATP over buffer (Cy3 cluster intensity, sum of 5 cycles each) (fold (ratio)); higher = stronger signal-on switching upon ATP binding; sequences stand for … in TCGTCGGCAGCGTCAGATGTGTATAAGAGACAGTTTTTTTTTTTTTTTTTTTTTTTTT…TC
Settings: aptamer strand: ATP DNA aptamer (quencher-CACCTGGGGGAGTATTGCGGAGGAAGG + anchor), 100 nM annealed; ATP concentration: 500 uM
# answer = number (no unit)

Past entries and their recorded results:
# primary.sequence, assay.result
rows = [
    ("TATTATGGCA", 1.02),
    ("TCAGAATTCA", 1.01),
    ("TTAGGGGCGA", 0.994),
    ("TTGGGCGGCG", 0.982),
    ("GTGTTAATGA", 0.967),
]

In: Reported switch fluorescence ratio for ATP, given AGGTTGTTCT ?
Out: 0.967

In: Reported switch fluorescence ratio for ATP, given AGGGGATTGG ?
Out: 0.991

In: Reported switch fluorescence ratio for ATP, given TTTCACTTGG ?
Out: 1.03

In: Reported switch fluorescence ratio for ATP, given ACAGGTCATT ?
Out: 1.01

In: Reported switch fluorescence ratio for ATP, given AAAAGGTTTG ?
Out: 1.02

In: Reported switch fluorescence ratio for ATP, given GGTGTGTGAC ?
Out: 0.999

In: Reported switch fluorescence ratio for ATP, given CCAATAGGCA ?
Out: 1.05
